Species: Rattus norvegicus
Method notes: Open TG-GATES - Regimen: Daily Repeat
Assay type: toxicity, organism-based, Sprague-Dawley
Design: regimen Daily Repeat, gender Male, age 6 weeks
Condition parameters: in vivo, po, 0 mg/kg, 72 h, tissue Plasma, route gavage, dose level Control, time 3 day
TC overview

Molecule	TC
OCCN1CCN(CCCN2c3ccccc3Sc3ccc(C(F)(F)F)cc32)CC1 [FLUPHENAZINE]	86.2 mg/dL
CCOC(=O)C(C)(C)Oc1ccc(Cl)cc1 [CLOFIBRATE]	78 mg/dL
C[C@H]1C(=O)O[C@@H]2CCN3CC=C(COC(=O)[C@](C)(O)[C@]1(C)O)[C@H]23 [MONOCROTALINE]	83.8 mg/dL
O=C1CN(/N=C/c2ccc([N+](=O)[O-])o2)C(=O)N1 [NITROFURANTOIN]	77.6 mg/dL
C=C(C)[C@H]1Cc2c(ccc3c2O[C@@H]2COc4cc(OC)c(OC)cc4[C@@H]2C3=O)O1 [ROTENONE]	77.6 mg/dL
C[C@H]1O[C@H](O[C@H]2[C@H](O)[C@@H](O)[C@@H](O[C@H]3[C@H](O)[C@@H](O)C(O)O[C@@H]3CO)O[C@@H]2CO)[C@H](O)[C@@H](O)[C@@H]1N[C@H]1C=C(CO)[C@@H](O)[C@H](O)[C@H]1O (some centres undefined) [ACARBOSE]	71.6 mg/dL
Cc1cccc(C)c1OCC(C)N (centres undefined) [MEXILETINE]	73.2 mg/dL
Cn1cc[nH]c1=S [METHIMAZOLE]	89.4 mg/dL
O=[N+]([O-])c1ccc(O)c([N+](=O)[O-])c1 [2,4-DINITROPHENOL]	84.2 mg/dL

---

Reported values of Ret for individual entries
Species: Rattus norvegicus
Method notes: Open TG-GATES - Regimen: Daily Repeat
Assay type: toxicity, organism-based, Sprague-Dawley
Design: regimen Daily Repeat, gender Male, age 6 weeks
Condition parameters: in vivo, po, 0 mg/kg, […], tissue Blood, route gavage, dose level Control, time 14 day
Test readout: Ret (%)

Compound	Reported value
CCOC(=O)C(C)(C)Oc1ccc(Cl)cc1 [CLOFIBRATE]	4.4
C[C@H]1O[C@H](O[C@H]2[C@H](O)[C@@H](O)[C@@H](O[C@H]3[C@H](O)[C@@H](O)C(O)O[C@@H]3CO)O[C@@H]2CO)[C@H](O)[C@@H](O)[C@@H]1N[C@H]1C=C(CO)[C@@H](O)[C@H](O)[C@H]1O (some centres undefined)	4.4
O=[N+]([O-])c1ccc(O)c([N+](=O)[O-])c1	3.9
C[C@H]1C(=O)O[C@@H]2CCN3CC=C(COC(=O)[C@](C)(O)[C@]1(C)O)[C@H]23	4.5
OCCN1CCN(CCCN2c3ccccc3Sc3ccc(C(F)(F)F)cc32)CC1	3.7
C=C(C)[C@H]1Cc2c(ccc3c2O[C@@H]2COc4cc(OC)c(OC)cc4[C@@H]2C3=O)O1	3.8
Cc1cccc(C)c1OCC(C)N (centres undefined)	8.8
Cn1cc[nH]c1=S	4.9
O=C1CN(/N=C/c2ccc([N+](=O)[O-])o2)C(=O)N1	4.4

---

Species on record: Rattus norvegicus
Method notes: Open TG-GATES - Regimen: Single
Format: toxicity, organism-based, Sprague-Dawley
Parameters: regimen Single, gender Male, age 6 weeks
Condition parameters: in vivo, po, 0 mg/kg, 6 h, tissue Blood, route gavage, dose level Control
Ret values for the compounds below.
Test readout: Ret (%)

Compound	Reported value
CCOC(=O)C(C)(C)Oc1ccc(Cl)cc1 [CLOFIBRATE]	7.7
Cc1cccc(C)c1OCC(C)N (centres undefined)	7.8
Cc1ccc2cc3c(ccc4ccccc43)c3c2c1CC3	8.7
C=C(C)[C@H]1Cc2c(ccc3c2O[C@@H]2COc4cc(OC)c(OC)cc4[C@@H]2C3=O)O1	8.1
OCCN1CCN(CCCN2c3ccccc3Sc3ccc(C(F)(F)F)cc32)CC1	8.4
C[C@H]1C(=O)O[C@@H]2CCN3CC=C(COC(=O)[C@](C)(O)[C@]1(C)O)[C@H]23	7.8
C[C@H]1O[C@H](O[C@H]2[C@H](O)[C@@H](O)[C@@H](O[C@H]3[C@H](O)[C@@H](O)C(O)O[C@@H]3CO)O[C@@H]2CO)[C@H](O)[C@@H](O)[C@@H]1N[C@H]1C=C(CO)[C@@H](O)[C@H](O)[C@H]1O (some centres undefined)	8.4
Cn1cc[nH]c1=S	9.1
O=[N+]([O-])c1ccc(O)c([N+](=O)[O-])c1	8.9
